assay-system: human MS4A4A (human, UniProt Q96JQ5 1-239)
protocol-notes: FACS, U937-huMS4A4A, 5 ug/ml
Here the recorded MFI is given for each entry.
Write the number on its own, no unit after it.

Examples from the recorded data:
binder: anti-MS4A4A antibody 4A-301 (antibody, human IgG1, V domains shown, human IgG1/kappa) VH: QVQLVQSGAEVKKPGASVKVSCKASGYTFTNYWMQWVRQAPGQGLEWMGATHPGHGDTRYAQKFQGRVTMTRDTSTSTVYMELSSLRSEDTAVYYCAREEVYYGFRSYWYFDVWGRGTLVTVSS VL: DIVMTQSPDSLAVSLGERATINCRASESVDNYGVSFMNWYQQKPGQPPKLLIYGASNQGSGVPDRFSGSGSGTDFTLTISSLQAEDVAVYYCQQSKEVPPTFGGGTKVEIK
MFI: 89.7
//
binder: anti-MS4A4A antibody 4A-342 (antibody, human IgG1, V domains shown, humanized 4A-21; human IgG1/kappa) VH: QIQLVQSGAEVKKPGASVKVSCKASGYIFTSYGLSWVRQAPGQGLEWMGWINTYSGVPTYAQKFQGRVTMTRDTSTSTVYMELSSLRSEDTAVYYCARSLVDYWGQGTLVTVSS VL: DVVMTQTPLSLSVTPGQPASISCKSSQSLLYSDGKTYLSWYLQKPGQPPQRLIYLVSKLDSGVPDRFSGSGSGTDFTLKISRVEAEDVGVYYCWQGIDFHQTFGGGTKVEIK
MFI: 538

Let us examine a further case.
Look up MFI of anti-MS4A4A antibody 4A-339 (antibody, human IgG1, V domains shown, humanized 4A-21; human IgG1/kappa) VH: QVQLVQSGSELKKPGASVKVSCKASGYIFTSYGLSWVRQAPGQGLEWMGWINTYSGVPTYAQGFTGRFVFSLDTSVSTTYLQISSLKAEDTAVYYCARSLVDYWGQGTLVTVSS VL: DVVMTQTPLSSPVTLGQPASISCKSSQSLLYSDGKTYLSWLQQRPGQPPRRLIYLVSKLDSGVPDRFSGSGAGTDFTLKISRVEAEDVGVYYCWQGIDFHQTFGGGTKVEIK and report it.
284
